Target: Matrix metalloproteinase-9 (Homo sapiens)
Sequence (P14780 whole entry): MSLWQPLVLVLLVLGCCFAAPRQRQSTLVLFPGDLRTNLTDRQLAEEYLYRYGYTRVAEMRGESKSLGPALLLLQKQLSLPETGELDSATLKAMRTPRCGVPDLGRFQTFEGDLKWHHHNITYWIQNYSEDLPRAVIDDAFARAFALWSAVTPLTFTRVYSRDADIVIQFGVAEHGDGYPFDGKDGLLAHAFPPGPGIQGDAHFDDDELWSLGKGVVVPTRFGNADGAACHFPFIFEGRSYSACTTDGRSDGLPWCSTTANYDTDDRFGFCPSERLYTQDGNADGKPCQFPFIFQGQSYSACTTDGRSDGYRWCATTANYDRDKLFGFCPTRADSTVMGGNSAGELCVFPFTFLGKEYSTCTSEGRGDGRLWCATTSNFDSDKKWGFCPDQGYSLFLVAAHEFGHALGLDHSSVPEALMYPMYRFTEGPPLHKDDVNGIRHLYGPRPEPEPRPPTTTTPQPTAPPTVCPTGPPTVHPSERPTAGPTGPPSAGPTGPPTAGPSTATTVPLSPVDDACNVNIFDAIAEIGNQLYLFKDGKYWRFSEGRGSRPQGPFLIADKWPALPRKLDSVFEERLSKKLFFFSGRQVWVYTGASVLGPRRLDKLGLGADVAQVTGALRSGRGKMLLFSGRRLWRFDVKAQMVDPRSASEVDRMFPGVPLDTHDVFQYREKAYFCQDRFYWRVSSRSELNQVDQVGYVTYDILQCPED
Assay: Inhibition of recombinant human MMP9 using Mca-Lys-Pro-Leu-Gly-Leu-Dap(Dnp)-Ala-Arg-NH2 as substrate preincubated for 3 hrs followed by substrate addition and measured every 10 secs for 15 mins by fluorescence assay
pIC50: −log10 of the molar value.
quantity.name: pIC50

Solved entries:
CC(=O)N[C@@H]1[C@@H](O)[C@H](O)[C@@H](CO)O[C@H]1NC(=S)NCCN([C@@H](C(=O)O)C(C)C)S(=O)(=O)c1ccc(-c2ccccc2)cc1 ... 5.27
CO[C@@H]1O[C@H](CNC(=S)NCCN([C@@H](C(=O)O)C(C)C)S(=O)(=O)c2ccc(-c3ccccc3)cc2)[C@@H](OC(C)=O)[C@H](OC(C)=O)[C@H]1OC(C)=O ... 7.49
CO[C@@H]1O[C@H](CN([C@@H](C(=O)O)C(C)C)S(=O)(=O)c2ccc(-c3ccccc3)cc2)[C@@H](OC(C)=O)[C@H](OC(C)=O)[C@H]1NC(C)=O ... 5.91
CO[C@@H]1O[C@H](CN([C@@H](C(=O)O)C(C)C)S(=O)(=O)c2ccc(-c3ccccc3)cc2)[C@@H](OC(C)=O)[C@H](OC(C)=O)[C@H]1OC(C)=O ... 5.59

A. CC(=O)OC[C@H]1O[C@@H](NC(=S)NCCN([C@@H](C(=O)O)C(C)C)S(=O)(=O)c2ccc(-c3ccccc3)cc2)[C@H](OC(C)=O)[C@@H](OC(C)=O)[C@@H]1OC(C)=O
B. CO[C@@H]1O[C@H](CNC(=S)NCCN([C@@H](C(=O)O)C(C)C)S(=O)(=O)c2ccc(-c3ccccc3)cc2)[C@@H](O)[C@H](O)[C@H]1O
C. CO[C@@H]1O[C@H](CN([C@@H](C(=O)O)C(C)C)S(=O)(=O)c2ccc(-c3ccccc3)cc2)[C@@H](O)[C@H](O)[C@H]1O
### Prompt Write the entries in order, lowest recorded pIC50 first. The labels, placed in the requested order, form the answer.
### Response C, A, B

* * *

Target: Macrophage metalloelastase (Homo sapiens)
Sequence (P39900 whole entry): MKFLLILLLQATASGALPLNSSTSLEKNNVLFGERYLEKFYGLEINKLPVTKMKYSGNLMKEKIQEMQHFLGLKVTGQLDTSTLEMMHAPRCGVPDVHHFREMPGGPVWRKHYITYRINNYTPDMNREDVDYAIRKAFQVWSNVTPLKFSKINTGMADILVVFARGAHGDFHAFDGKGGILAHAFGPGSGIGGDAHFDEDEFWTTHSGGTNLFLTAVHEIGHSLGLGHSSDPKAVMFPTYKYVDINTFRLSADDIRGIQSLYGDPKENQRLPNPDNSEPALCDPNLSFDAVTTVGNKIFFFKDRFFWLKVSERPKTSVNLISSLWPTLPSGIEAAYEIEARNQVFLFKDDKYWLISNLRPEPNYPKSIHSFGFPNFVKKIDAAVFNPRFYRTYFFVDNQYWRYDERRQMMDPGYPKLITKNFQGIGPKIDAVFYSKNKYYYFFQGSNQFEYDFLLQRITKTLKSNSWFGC
Experiment: Inhibition of recombinant human MMP12 using Mca-Lys-Pro-Leu-Gly-Leu-Dap(Dnp)-Ala-Arg-NH2 as substrate preincubated for 3 hrs followed by substrate addition and measured every 10 secs for 15 mins by fluorescence assay
quantity.name: IC50 (nM)

CO[C@@H]1O[C@H](CNC(=S)NCCN([C@@H](C(=O)O)C(C)C)S(=O)(=O)c2ccc(-c3ccccc3)cc2)[C@@H](OC(C)=O)[C@H](OC(C)=O)[C@H]1OC(C)=O ... 20
CC(=O)N[C@@H]1[C@@H](OC(C)=O)[C@H](OC(C)=O)[C@@H](COC(C)=O)O[C@H]1NC(=S)NCCN([C@@H](C(=O)O)C(C)C)S(=O)(=O)c1ccc(-c2ccccc2)cc1 ... 18
CO[C@@H]1O[C@H](CN([C@@H](C(=O)O)C(C)C)S(=O)(=O)c2ccc(-c3ccccc3)cc2)[C@@H](OC(C)=O)[C@H](OC(C)=O)[C@H]1NC(C)=O ... 83
CO[C@@H]1O[C@H](CN([C@@H](C(=O)O)C(C)C)S(=O)(=O)c2ccc(-c3ccccc3)cc2)[C@@H](OC(C)=O)[C@H](OC(C)=O)[C@H]1OC(C)=O ... 84

A. CC(=O)N[C@@H]1[C@@H](OC(C)=O)[C@H](OC(C)=O)[C@@H](COC(C)=O)O[C@H]1N([C@@H](C(=O)O)C(C)C)S(=O)(=O)c1ccc(-c2ccccc2)cc1
B. CC(=O)N[C@@H]1[C@@H](O)[C@H](O)[C@@H](CO)O[C@H]1N([C@@H](C(=O)O)C(C)C)S(=O)(=O)c1ccc(-c2ccccc2)cc1
C. CC(C)[C@H](C(=O)O)N(CCNC(=S)N[C@@H]1O[C@H](CO)[C@@H](O)[C@H](O)[C@H]1O)S(=O)(=O)c1ccc(-c2ccccc2)cc1
D. CC(=O)N[C@@H]1[C@@H](O)[C@H](O)[C@@H](CO)O[C@H]1NC(=S)NCCN([C@@H](C(=O)O)C(C)C)S(=O)(=O)c1ccc(-c2ccccc2)cc1
### Prompt With regard to IC50, arrange the entries in ascending order, please. Reply: labels, ordered per the request.
### Response D, C, B, A
(D: 40 nM, C: 98 nM, B: 9200 nM, A: 40000 nM)
